These measurements were taken from patent US6720332B2.

# ASSAYED TARGET: CDK2 (Homo sapiens)
# Construct: made in house
# PROTOCOL DETAILS: CDK2 substrate phosphorylation assay (biotinylated peptide)
# Assay type: biochemical
# MEASUREMENT CONDITIONS: read-out: CDK2 inhibition
READOUT LABEL: IC50

Q: Recorded IC50 for CC(C)CN(C)Cc1ccc(N/C=C2\C(=O)Nc3ccc4ncccc4c32)cc1 [Example 6] , please?
A: < 1000 nM

###

# ASSAYED TARGET: CDK4 (Cyclin D1 and cyclin-dependent kinase 4) (Homo sapiens)
# Sequence (P11802 whole entry): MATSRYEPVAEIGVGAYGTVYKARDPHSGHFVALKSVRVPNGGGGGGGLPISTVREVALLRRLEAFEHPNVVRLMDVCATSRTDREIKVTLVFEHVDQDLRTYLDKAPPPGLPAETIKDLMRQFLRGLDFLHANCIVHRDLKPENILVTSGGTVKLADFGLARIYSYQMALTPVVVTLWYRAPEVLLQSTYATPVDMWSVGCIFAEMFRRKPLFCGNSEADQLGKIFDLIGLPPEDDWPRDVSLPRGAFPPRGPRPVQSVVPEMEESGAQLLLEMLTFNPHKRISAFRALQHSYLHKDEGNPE
# Sequence (P24385 whole entry partner): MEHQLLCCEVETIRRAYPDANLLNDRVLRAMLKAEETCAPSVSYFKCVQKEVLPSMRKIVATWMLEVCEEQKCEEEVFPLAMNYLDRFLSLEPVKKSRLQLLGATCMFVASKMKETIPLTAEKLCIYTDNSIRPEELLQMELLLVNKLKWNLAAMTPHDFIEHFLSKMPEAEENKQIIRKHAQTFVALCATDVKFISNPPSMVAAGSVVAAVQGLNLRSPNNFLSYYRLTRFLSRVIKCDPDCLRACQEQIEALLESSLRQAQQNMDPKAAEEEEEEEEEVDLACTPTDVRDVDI
# PROTOCOL DETAILS: CDK4 substrate phosphorylation assay (Rb protein)
# MEASUREMENT CONDITIONS: read-out: CDK4 inhibition
READOUT LABEL: IC50

# annotated cases, reported IC50 shown
INSERT INTO assay_data (compound, assayed_target, assay_result) VALUES
  ('O=C1Nc2ccc3ncccc3c2/C1=C/Nc1ccc(CN2CCOCC2)cc1 [Example 10]', 'CDK4 (Cyclin D1 and cyclin-dependent kinase 4) (Homo sapiens)', '< 100 nM'),
  ('CC(C)CN(C)Cc1ccc(N/C=C2\C(=O)Nc3ccc4ncccc4c32)cc1 [Example 6]', 'CDK4 (Cyclin D1 and cyclin-dependent kinase 4) (Homo sapiens)', '< 100 nM');

Q: Recorded IC50 for CN(C)Cc1ccc(N/C=C2\C(=O)Nc3ccc4ncccc4c32)cc1 [Example 1] , please?
A: < 100 nM
